- Tested on: CCRIS mutagenicity, Ames/micronucleus/aberration tests
- RUN DESCRIPTION: CCRIS mutagenicity studies
- CONDITION PARAMETERS: Test System: AMES SALMONELLA TYPHIMURIUM; Strain/Indicator: TA97; Metabolic Activation: RAT, LIVER, S-9, AROCLOR 1254; Method: PREINCUBATION
Calls of active or inactive are those of the source. No rule for the calls is given here.
Hi! Could you answer with just one of these? active, inactive

MOLECULE	CLASS LABEL
CCCC(=O)OCCC(C)C	inactive
O=C(O)/C=C/C(=O)O	inactive
CC(C)CCOC(=O)CC(C)C	inactive
Nc1nc(=O)n([C@H]2C[C@H](O)[C@@H](CO)O2)cc1I	inactive

Now let's try a different one.
Q: Could you please tell me the result logged for O.O.O.[Fe].[Fe] in this assay?
Ans: inactive
